Reported Kd values are given for each entry in this list.
biological target: p38α (as used in the fluorescence polarization titrations) (human, UniProt Q16539 1-360); assay: FP
Sequence (Q16539 whole entry): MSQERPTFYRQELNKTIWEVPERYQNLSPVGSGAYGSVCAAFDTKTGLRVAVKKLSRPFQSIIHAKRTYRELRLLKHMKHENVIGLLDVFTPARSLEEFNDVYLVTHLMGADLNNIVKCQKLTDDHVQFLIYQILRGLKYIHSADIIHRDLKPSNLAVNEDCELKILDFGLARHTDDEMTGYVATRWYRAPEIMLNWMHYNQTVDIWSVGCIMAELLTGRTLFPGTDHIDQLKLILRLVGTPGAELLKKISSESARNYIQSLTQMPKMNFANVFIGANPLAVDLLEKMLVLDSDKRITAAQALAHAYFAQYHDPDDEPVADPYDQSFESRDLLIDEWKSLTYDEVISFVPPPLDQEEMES
Ends that are not written are not given here.
Parameter: Kd

binder="RPTRLSL (not fully specified) [IRS1 peptide]" parameter=Kd reported_value="74.6 µM"
binder="KRRSLRVHIP (not fully specified) [AAKG2 peptide]" parameter=Kd reported_value="8.2 µM"
binder="KKIQPKLSLT (not fully specified) [JAZF1 peptide]" parameter=Kd reported_value="8.9 µM"
binder="RHRDKRLSLNLP (not fully specified) [GAB3 peptide]" parameter=Kd reported_value="5.2 µM"

Ref: paper PMC4670726
